Target: human GLUT1 (Homo sapiens)
Construct: expressed in transfected cells
Assay: [3H]-deoxy-D-glucose uptake assay, GLUT1
Format: cell-based
Conditions: [3H]-deoxy-D-glucose uptake in HEK293 cells stably expressing human GLUT1
measurementType: GLUT1 pIC50

Known results for compounds:
{"columns": ["compoundSmiles", "GLUT1 pIC50"],
 "data": [
  ["COc1cccc(-c2nc3ccc(-c4ccccc4)cn3c2CN2CCN(C(=O)C3CC3)CC2)c1", "++ (pIC50 5.00-5.99)"],
  ["O=S(=O)(c1cccc(F)c1)N1CCN(Cc2c(-c3ccc(Cl)cc3)nc3ccc(-c4ccccc4)cn23)CC1", "+− (pIC50 < 4.00)"],
  ["CN(c1ccc2nc(-c3ccc(Cl)cc3Cl)c(CN3CCN(C(=O)C4CCOCC4)CC3)n2c1)S(C)(=O)=O", "+++ (pIC50 ≧ 6.00)"],
  ["CN1CCN(Cc2c(-c3ccc(Cl)cc3)nc3ccc(-c4ccccc4)cn23)CCC1=O", "+++ (pIC50 ≧ 6.00)"],
  ["Clc1ccc(-c2nc3ccc(-c4ccccc4)cn3c2CN2CCOCC2)cc1Cl", "++ (pIC50 5.00-5.99)"]
]}

For reference, reported GLUT1 pIC50 for Clc1ccc(-c2nc3ccc(C4CCOCC4)cn3c2CN2CCOCC2)cc1 stands at ++ (pIC50 5.00-5.99)

For reference, reported GLUT1 pIC50 for Clc1ccc(-c2nc3ccc(-c4nnn[nH]4)cn3c2CN2CCOCC2)cc1 stands at +− (pIC50 < 4.00)

For reference, reported GLUT1 pIC50 for N#Cc1ccccc1-c1ccc2nc(-c3ccc(Cl)cc3)c(CN3CCN(C(=O)c4cnccn4)CC3)n2c1 stands at +++ (pIC50 ≧ 6.00)

---

Target: human GLUT1 (Homo sapiens, UniProt P11166)
Construct: expressed in transfected cells
Sequence (P11166 1-492): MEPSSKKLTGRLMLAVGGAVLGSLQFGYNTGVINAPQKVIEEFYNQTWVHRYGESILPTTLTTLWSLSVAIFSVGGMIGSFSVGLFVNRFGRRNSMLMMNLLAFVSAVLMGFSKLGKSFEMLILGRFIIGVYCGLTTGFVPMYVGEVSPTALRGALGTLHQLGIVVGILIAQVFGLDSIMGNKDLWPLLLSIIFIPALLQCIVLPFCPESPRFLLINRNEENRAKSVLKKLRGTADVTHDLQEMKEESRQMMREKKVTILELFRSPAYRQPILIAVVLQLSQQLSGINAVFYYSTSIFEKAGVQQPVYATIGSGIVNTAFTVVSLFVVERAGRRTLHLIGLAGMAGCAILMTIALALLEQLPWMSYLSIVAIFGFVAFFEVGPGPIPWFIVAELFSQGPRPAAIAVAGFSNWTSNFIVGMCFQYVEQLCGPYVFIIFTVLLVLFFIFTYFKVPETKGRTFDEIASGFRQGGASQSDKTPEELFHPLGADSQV
Experiment: [3H]-deoxy-D-glucose uptake assay, GLUT1
Assay type: cell-based
Conditions: [3H]-deoxy-D-glucose uptake in HEK293 cells stably expressing human GLUT1
measurementType: GLUT1 pIC50

Known results for molecules:
{"columns": ["molecule", "result"],
 "data": [
  ["CN(c1ccc2nc(-c3ccc(Cl)cc3Cl)c(CN3CCN(C(=O)c4ccc(F)cc4)CC3)n2c1)S(C)(=O)=O [Compound 363]", "+++ (pIC50 ≧ 6.00)"],
  ["COc1cccc(-c2nc3ccc(-c4ccccc4C#N)cn3c2CN2CCN(C(=O)C3CCC3)CC2)c1 [Compound 191]", "+++ (pIC50 ≧ 6.00)"],
  ["O=C(c1cnccn1)N1CCN(Cc2c(-c3ccc(Cl)cc3)nc3ccc(-c4ccccc4)cn23)CC1 [Compound 181]", "+++ (pIC50 ≧ 6.00)"],
  ["CC(=O)N1CCN(Cc2c(-c3ccc(Cl)cc3)nc3ccc(-c4c(F)cccc4F)cn23)CC1 [Compound 226]", "+++ (pIC50 ≧ 6.00)"],
  ["O=C(c1cocn1)N1CCN(Cc2c(-c3ccc(Cl)cc3)nc3ccc(-c4ccccc4)cn23)CC1 [Compound 229]", "+++ (pIC50 ≧ 6.00)"],
  ["CCCS(=O)(=O)N(C)c1ccc2nc(-c3ccc(Cl)cc3)c(CN3CCN(C(C)=O)CC3)n2c1 [Compound 341]", "+++ (pIC50 ≧ 6.00)"],
  ["COc1ccc(-c2nc3ccc(-c4ccccc4)cn3c2CN2CCOCC2)cc1 [Compound 101]", "++ (pIC50 5.00-5.99)"],
  ["Clc1ccc(-c2nc3ccc(-c4ccccn4)cn3c2CN2CCOCC2)cc1 [Compound 120]", "++ (pIC50 5.00-5.99)"],
  ["O=C(COCc1ccccc1)N1CCN(Cc2c(-c3ccc(Cl)cc3)nc3ccc(-c4ccccc4)cn23)CC1 [Compound 18]", "+++ (pIC50 ≧ 6.00)"],
  ["CC(=O)N1CCN(Cc2c(-c3ccc(Cl)cc3)nc3ccc(NS(=O)(=O)C4CC4)cn23)CC1 [Compound 318]", "+++ (pIC50 ≧ 6.00)"]
]}

For reference, reported GLUT1 pIC50 for O=S1(=O)CCN(Cc2c(-c3ccc(Cl)cc3)nc3ccc(-c4ccccc4)cn23)CC1 [Compound 364] stands at ++ (pIC50 5.00-5.99)

For reference, reported GLUT1 pIC50 for N#Cc1ccccc1-c1ccc2nc(-c3ccc(Cl)cc3)c(CN3CCNC(=O)C3)n2c1 [Compound 239] stands at +++ (pIC50 ≧ 6.00)

For reference, reported GLUT1 pIC50 for O=C(c1cccc(Cl)c1)N1CCN(Cc2c(-c3ccc(Cl)cc3)nc3ccc(-c4ccccc4)cn23)CC1 [Compound 185] stands at ++ (pIC50 5.00-5.99)

For reference, reported GLUT1 pIC50 for O=C(c1cccc(F)c1)N1CCCN(Cc2c(-c3ccc(Cl)cc3)nc3ccc(-c4ccccc4)cn23)CC1 [Compound 169] stands at ++ (pIC50 5.00-5.99)
